target: T1, human PD-L1 (Programmed Death Ligand-1), protein used in Biacore and ELISA (human, UniProt Q9NZQ7 19-239); assay: ELISA, inhibition of binding of human CD80 (B7-1) to human PD-L1
T1 construct: also called hPD-L1; CD274
T1 sequence (Q9NZQ7 19-239 limits assumed): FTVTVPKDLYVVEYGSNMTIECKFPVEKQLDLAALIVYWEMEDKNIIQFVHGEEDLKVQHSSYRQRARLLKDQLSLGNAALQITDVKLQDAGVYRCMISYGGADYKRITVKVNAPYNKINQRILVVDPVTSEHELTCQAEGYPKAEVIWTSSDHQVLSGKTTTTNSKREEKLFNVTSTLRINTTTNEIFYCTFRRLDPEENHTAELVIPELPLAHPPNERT
pEC50: −log10 of the molar value.
Reported pEC50 by item:

BINDER | pEC50
ATI-968 (designed binder, 10Fn3 Adnectin; also called ADX_1760_C01) MGVSDVPRDLEVVAATPTSLLISWIAPFYNVIYYRITYGETGGNSPVQEFTVPGTGYTATISGLKPGVDYTITVYAVTDGASIASYAFPISINYRTEIDKPSQHHHHHH | 10.25
ATI-964 (designed binder, 10Fn3 Adnectin; also called parent of ADX_5322_A02) MGVSDVPRDLEVVAATPTSLLISWSYDGSIERYYRITYGETGGNSPVQEFTVPPDQKTATISGLKPGVDYTITVYAVRLEEAHYYRESPISINYRTEIDKPSQHHHHHH | 10.39
ATI-966 (designed binder, 10Fn3 Adnectin) MGVSDVPRDLEVVAATPTSLLISWHRFSSIMAYYRITYGETGGNSPVQEFTVAGSVNTATISGLKPGVDYTITVYAVTIHNVSFPISINYRTEIDKPSQHHHHHH | 10.55
ATI-965 (designed binder, 10Fn3 Adnectin) MGVSDVPRDLEVVAATPTSLLISWTAYDSVDKYYRITYGETGGNSPVQEFTVGPRHHTATISGLKPGVDYTITVYAVYHTEPGYHAHMPISINYRTEIDKPSQHHHHHH | 9.68
